# System: SF-295
# experiment: NCI tumour cell line growth inhibition, 48 h
Activity calls are given as the source filed them. Rule as the data show it: active = GI50 up to about 1.1 µM and inactive = higher. Where a SMILES comes first, the peptide text is derived from it. [ ]: non-standard residue; d: D form. The star is where a group is joined. Bn2Val = CC(C)[C@@H](C(=O)*)N(Cc1ccccc1)Cc1ccccc1; NHPiperonyl = c1cc2c(cc1CN*)OCO2; NMeV = CN[C@H](C(=O)O)C(C)C; dNMeA = CN[C@H](C)C(=O)O; Boc = CC(C)(C)OC(=O)*; Bn = c1ccc(C*)cc1
readout name: GI50

COc1ccc2cccc(C(=N)c3ccc(C)c4c3CCC4)c2c1 = 5.7 µM (inactive)
CC(C)c1ccccc1SC1CC(=O)CC(Sc2ccccc2C(C)C)C12O[C@H](c1ccccc1)[C@@H](c1ccccc1)O2 (some centres undefined) = > 100 µM (inactive)
O=C(Nc1nnc(-c2c(Cl)c(Cl)c(Cl)c(Cl)c2-c2nc3cc(C(=O)c4ccccc4)ccc3[nH]2)o1)c1ccc(Cl)cc1 = 5.86 µM (inactive)
CN(C)N1C(=O)SCC(c2ccccc2)(c2ccccc2)C1=O = > 100 µM (inactive)
O=C(Nc1ccc(F)cc1)C(=O)C(C1OC(=O)c2ccccc21)[N+](=O)[O-] (centres undefined) = > 100 µM (inactive)
CC1(C)CC(=O)C=C(NC(=O)c2ccccc2)C1 = > 100 µM (inactive)
C=CCOC(C)(C)C1=CCC(C)CC1 (centres undefined) = > 100 µM (inactive)
O=C1CC(c2ccccc2)C2(C(=O)NC(=S)NC2=O)C(c2ccccc2)C1 (centres undefined) = > 75 µM (inactive)
COC(=O)C1CC(c2ccc(Cl)cc2)=NO1 (centres undefined) = > 100 µM (inactive)
CCS(CC)(CC)CC1CCCC2=CCC(P(=O)(c3ccccc3)c3ccccc3)CC21 (centres undefined) = 3.81 µM (inactive)
CSc1nc(NC2OC(CO)C(O)C(O)C2O)c(N)c(=O)n1C (centres undefined) = > 100 µM (inactive)
COc1cccc2c1CCc1ccccc1CC2=O = > 100 µM (inactive)
CCCc1nc2c(n1CC)C(=O)c1ccccc1C2=O = 56 µM (inactive)
COc1cc2ccnc3c2c(c1OC)-c1coc(SC)c1-3 = 13.4 µM (inactive)
CCOC(=O)c1csc(NC(=O)C(C)N2CCOCC2)n1 (centres undefined) = > 100 µM (inactive)
O=[N+]([O-])c1ccc(C[P+](c2ccccc2)(c2ccccc2)c2ccccc2)cc1 = > 100 µM (inactive)
CC(C)[C@H](NC(=O)[C@H](C(C)C)N(Cc1ccccc1)Cc1ccccc1)C(=O)N(C)[C@H](C(=O)N1CCC[C@H]1C(=O)N(C)[C@H](C)C(=O)NCc1ccc2c(c1)OCO2)C(C)C (Bn2Val-V[NMeV]P[dNMeA]-NHPiperonyl) = 4.94 µM (inactive)
COC(=O)C(CC(C)C)NC(=O)CNC(=O)C(Cc1ccc(OCc2ccccc2)cc1)NC(=O)C(COCc1ccccc1)NC(=O)OC(C)(C)C (centres undefined) (Boc-S(Bn)Y(Bn)GL-OMe; configuration not given here) = > 100 µM (inactive)
COc1cc2ccccc2oc1=O = > 100 µM (inactive)

These entries and their values trace back to ChEMBL document CHEMBL1201862.
